tested on: SK-Mel-28 melanoma cells; test: Anti-proliferative assay, cell-titre luminescent reagent, 72 h (GVK-BIO); type: cell-based; details: Homo sapiens, SK-MEL-28, 72 h, 30, 3, 0.3 and 0.03 μM, linear regression (Tables 2-4)
Observable: IC50 (µM)

{"Molecule": "CN(C)CCCn1ccc2cc(Cc3cccc(C(=O)Nc4ccccc4)c3)ccc21", "Unit Of Measure": "µM", "Reported Value": 3.3}
{"Molecule": "Cc1c(C)n(CCCN(C)C)c2ccc(Cc3cccc(C(=O)Nc4ccc5c(c4)OCO5)c3)cc12", "Unit Of Measure": "µM", "Reported Value": 6.2}
{"Molecule": "Cc1c(C)n(CCCN2CCN(C)CC2)c2ccc(C(=O)N3CCN(CCc4cccc(F)c4)CC3)cc12", "Unit Of Measure": "µM", "Reported Value": 15.9}
{"Molecule": "CN(C)CCCn1ccc2cc(Cc3ccc(C(=O)Nc4cccc(F)c4)cc3)ccc21", "Unit Of Measure": "µM", "Reported Value": 3.1}
{"Molecule": "CN(C)CCCn1ccc2cc(Oc3cccc(C(=O)Nc4cccc(F)c4)c3)ccc21", "Unit Of Measure": "µM", "Reported Value": 15.5}
{"Molecule": "CN(C)CCCn1ccc2cc(Nc3cccc(C(=O)Nc4ccc5c(c4)OCO5)c3)ccc21", "Unit Of Measure": "µM", "Reported Value": 2.5}
{"Molecule": "Cc1c(C)n(CCCN(C)C)c2ccc(Nc3ccc(C(=O)Nc4ccccc4)cc3)cc12", "Unit Of Measure": "µM", "Reported Value": 3.4}
{"Molecule": "COc1cccc(NC(=O)c2cccc(Nc3ccc4c(ccn4CCCN(C)C)c3)c2)c1", "Unit Of Measure": "µM", "Reported Value": 4.9}

* * *

test system: SK-N-SH neuroblastoma cells; assay: Anti-proliferative assay, cell-titre luminescent reagent, 72 h (GVK-BIO); format: cell-based; details: Homo sapiens, SK-N-SH, 30, 10, 3, 1, 0.3 and 0.1 μM, nonlinear regression (Table 5)

{"Compound": "COc1cccc(CCN2CCN(Cc3ccc4c(c3)c(C)c(C)n4CCCN3CCN(C)CC3)CC2)c1 [Compound 4115]", "IC50 / µM": 4.9}
{"Compound": "Cc1c(C)n(CCCN2CCN(C)CC2)c2ccc(CN3CCN(CCc4ccc(O)cc4)CC3)cc12 [Compound 4112]", "IC50 / µM": 7}
{"Compound": "Cc1c(C)n(CCCN(C)C)c2ccc(Cc3ccc(C(=O)Nc4ccccc4)cc3)cc12 [Compound 4087]", "IC50 / µM": 5.6}
{"Compound": "CN(C)CCCn1ccc2cc(Oc3ccc(C(=O)Nc4ccc5c(c4)OCO5)cc3)ccc21 [Compound 4090]", "IC50 / µM": 6.3}
{"Compound": "Cc1c(C)n(CCCN2CCN(C)CC2)c2ccc(CN3CCN(CCc4cccc(O)c4)CC3)cc12 [Compound 4116]", "IC50 / µM": 4.6}
{"Compound": "Cc1c(C)n(CCCN2CCN(C)CC2)c2ccc(CN3CCN(CCc4ccc(F)cc4)CC3)cc12 [Compound 4110]", "IC50 / µM": 4.2}

* * *

system: CaCo2 colorectal cancer cells; experiment: Anti-proliferative assay, cell-titre luminescent reagent, 72 h (GVK-BIO); assay type: cell-based; details: Homo sapiens, Caco-2, 72 h, 30, 3, 0.3 and 0.03 μM, linear regression (Tables 2-4)

{"Molecule": "Cc1c(C)n(CCCN(C)C)c2ccc(Oc3cccc(C(=O)Nc4ccc5c(c4)OCO5)c3)cc12", "IC50": "9.6 µM"}
{"Molecule": "COc1ccc(NC(=O)c2cccc(Cc3ccc4c(c3)c(C)c(C)n4CCCN(C)C)c2)cc1", "IC50": "16.1 µM"}
{"Molecule": "Cc1c(C)n(CCCN(C)C)c2ccc(Nc3cccc(C(=O)Nc4cccc(F)c4)c3)cc12", "IC50": "3.3 µM"}
{"Molecule": "Cc1c(C)n(CCCN(C)C)c2ccc(Oc3ccc(C(=O)Nc4ccc5c(c4)OCO5)cc3)cc12", "IC50": "2.3 µM"}
{"Molecule": "CN(C)CCCn1ccc2cc(Cc3ccc(C(=O)Nc4ccccc4)cc3)ccc21", "IC50": "3 µM"}
{"Molecule": "Cc1c(C)n(CCCN(C)C)c2ccc(Oc3ccc(C(=O)Nc4ccccc4)cc3)cc12", "IC50": "4 µM"}
{"Molecule": "Cc1c(C)n(CCCN(C)C)c2ccc(Cc3cccc(C(=O)Nc4ccc(F)cc4)c3)cc12", "IC50": "4.2 µM"}
{"Molecule": "Cc1c(C)n(CCCN(C)C)c2ccc(Cc3cccc(C(=O)Nc4cccc(F)c4)c3)cc12", "IC50": "4.6 µM"}
{"Molecule": "Cc1c(C)n(CCCN(C)C)c2ccc(Cc3cccc(C(=O)Nc4ccccc4)c3)cc12", "IC50": "6.8 µM"}
{"Molecule": "Cc1c(C)n(CCCN(C)C)c2ccc(Oc3cccc(C(=O)Nc4cccc(F)c4)c3)cc12", "IC50": "3.8 µM"}
{"Molecule": "COc1cccc(NC(=O)c2ccc(Nc3ccc4c(c3)c(C)c(C)n4CCCN(C)C)cc2)c1", "IC50": "2.1 µM"}

Ref: patent US20170166555A1
